Measured pKd accompanies every entry in the list below.
target: T1, Clostridium difficile toxin B (whole toxin B) (Clostridium difficile); test: biolayer interferometry (Octet QKe); biotinylated antibody on streptavidin sensor, toxin B 50-0.78 nM
T1 construct: also called TcdB; tcdB
pKd: −log10 of the molar value.
Value Type: pKd

binder="CAN46G24 (antibody, V domains shown, also called CAN46G24-2-3; murine CAN46G24) VH: EVQLLQSGPELVKPGTSVKISCKASGYSFTGYYIHWVKQTHVKSLEWVGRIFPYNGAASYNQNFKGKATLTVDKSSSTAYMELHSLTSEDSAVYFCARWLRVYFDYWGQGTTLTVSS VL: EIVLTQSPAIMSTSPGEKVTMSCSASSSVTYMHWYQQKSITSPKLWIYETSKLASGVPGRFSGSGSGNSYSLTISSMEAEDVATYYCFQGSGYPFTFGSGTKLEIK" value_type=pKd observed_value=8.72
binder="CAN33G1 (antibody, V domains shown, also called murine CAN33G1; CAN33 mAb) VH: EVQLQQSGPDLVKPGASVKISCKASGYSFTGYYMHWVKQSHGKSLEWIGRVNPYNGDTNYNQNFKDKAILTVDKSASTAYMEFRSLTSEDSAVYYCTRSNWENYFDYWGQGSTLTVSS VL: DIQLTQSSSSFSVSLGDRVTITCKASEDIYNRLAWYQQRPGNAPRLLISGATSLETGIPSRFSGSGSGKEYTLSIASLQTEDFVTYYCQQYWNIPTFGGGTRLEIK" value_type=pKd observed_value=7.96
binder="CAN46G4 (antibody, V domains shown, also called CAN46G4-1-2; murine CAN46G4) VH: EVQLLQSGPELVKPGASVKISCKASDYSFTGYYMHWVKQSHVKSLEWIGRIFPYNGAASYNQNFKDKATLTVDKSSSTAYMELHSLTSEDSAVYYCTRWLRVYFDYWGQGTTLTVSS VL: EKVLTQSPAIMSASPGEEVTMTCSASSSVSYMHWYQQKSSTSPKLWIYETSKLAFGVPGRFSGSGSGNSYSLTISSMEAEDVATYYCFQGSGYPFTFGSGTKLEVK" value_type=pKd observed_value=8.85
binder="CAN46G13 (antibody, V domains shown, also called CAN46G13-1-5; murine CAN46G13) VH: EVQLLQSGPELVKPGTSVKISCKASGYSFTGYYIHWVKQTHVKSLEWVGRIFPYNGAASYNQNFKGKATLTVDKSSSTAYMELHSLTSEDSAVYFCARWLRVYFDYWGQGTTLTVSS VL: EIVLTQSPAIMSTSPGEKVTMSCSASSSVTYMHWYQQKSITSPKLWIYETSKLASGVPGRFSGSGSGNSYSLTISSMEAEDVATYYCFQGSGYPFTFGSGTKLEIK" value_type=pKd observed_value=8.93
binder="CAN46G19 (antibody, V domains shown, also called CAN46G19-3-2; murine CAN46G19) VH: EVQLLQSGPELVKPGTSVKISCKASGYSFTGYYIHWVKQTHVKSLEWVGRIFPYNGAASYNQNFKGKATLTVDKSSTTAYMELHSLTSEDSAVYFCARWLRVYFDYWGQGTTLTVSS VL: ENVLTQSPTIMSASPGEEVTMTCSASSSVTYMHWYQQKSITSPKLWIYETSKLASGVPGRFSGSGSGNSYSLTISSMEAEDVATYYCFQGSGYPFTFGSGTKLEIK" value_type=pKd observed_value=8.90
